target: Prostaglandin E2 receptor EP3 subtype (Homo sapiens, UniProt P43115)
Sequence (P43115 whole entry): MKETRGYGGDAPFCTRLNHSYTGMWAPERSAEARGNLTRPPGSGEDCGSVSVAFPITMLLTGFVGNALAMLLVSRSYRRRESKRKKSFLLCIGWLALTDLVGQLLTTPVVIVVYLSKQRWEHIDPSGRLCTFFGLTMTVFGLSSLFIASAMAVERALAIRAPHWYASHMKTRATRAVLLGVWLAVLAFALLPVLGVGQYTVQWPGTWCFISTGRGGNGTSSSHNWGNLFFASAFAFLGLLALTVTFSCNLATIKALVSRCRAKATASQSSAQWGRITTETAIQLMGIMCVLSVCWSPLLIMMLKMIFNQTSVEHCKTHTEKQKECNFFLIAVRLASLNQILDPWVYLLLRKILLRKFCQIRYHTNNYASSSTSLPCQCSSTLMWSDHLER
pKi: −log10 of the molar value.
measurement-name: pKi

Lab request: please report pKi under test system Prostaglandin E2 receptor EP3 subtype (Homo sapiens, UniProt P43115) for Cc1ccc(C(=O)O)c(C)c1NC(=O)c1cc(-c2cccc(Cl)c2)cc2ccccc12 < 4.76

----------
biological target: Cytochrome P450 3A4 (Homo sapiens, UniProt P08684)
Sequence (P08684 whole entry): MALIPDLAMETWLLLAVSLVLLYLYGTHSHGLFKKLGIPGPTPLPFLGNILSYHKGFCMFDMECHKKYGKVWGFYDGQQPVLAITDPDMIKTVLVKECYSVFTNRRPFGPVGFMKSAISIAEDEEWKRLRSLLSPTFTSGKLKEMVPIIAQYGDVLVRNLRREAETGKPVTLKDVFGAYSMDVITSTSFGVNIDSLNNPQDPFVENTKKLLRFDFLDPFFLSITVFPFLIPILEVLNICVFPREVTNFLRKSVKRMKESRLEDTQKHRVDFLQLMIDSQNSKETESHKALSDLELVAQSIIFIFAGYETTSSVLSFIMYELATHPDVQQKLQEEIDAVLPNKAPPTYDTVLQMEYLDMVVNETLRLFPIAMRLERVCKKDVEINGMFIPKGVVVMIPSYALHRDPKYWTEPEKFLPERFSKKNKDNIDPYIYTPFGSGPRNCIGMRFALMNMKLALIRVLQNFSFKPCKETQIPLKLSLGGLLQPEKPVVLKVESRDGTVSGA
pIC50: −log10 of the molar value.
measurement-name: pIC50

Query the reported pIC50 for Cytochrome P450 3A4 (Homo sapiens, UniProt P08684); item: Cc1ccc(C(=O)O)c(C)c1NC(=O)c1cc(-c2cccc(Cl)c2)cc2ccccc12 < 5.00

----------
test: Drug metabolism in human hepatic microsomes; type: ADME, Microsome; conditions: liver microsomes, read-out: Drug metabolism
metabolised for assorted compounds
Dear colleague, please send the value followed by its unit.

INSERT INTO assay_data (compound, result) VALUES
  ('Cc1cccc(C)c1NC(=O)c1cc(-c2ccccc2)nc2ccccc12', '71%');

Kindly consider the entry below.
Param item = CCc1nc2c(C)nc(C)cc2n1-c1ccc(CCNC(=O)NS(=O)(=O)c2ccc(C)cc2)cc1 [GRAPIPRANT] ; retrieve measured metabolised. 2%

----------
molecular target: Prostaglandin E2 receptor EP2 subtype (Homo sapiens)
Sequence (P43116 whole entry): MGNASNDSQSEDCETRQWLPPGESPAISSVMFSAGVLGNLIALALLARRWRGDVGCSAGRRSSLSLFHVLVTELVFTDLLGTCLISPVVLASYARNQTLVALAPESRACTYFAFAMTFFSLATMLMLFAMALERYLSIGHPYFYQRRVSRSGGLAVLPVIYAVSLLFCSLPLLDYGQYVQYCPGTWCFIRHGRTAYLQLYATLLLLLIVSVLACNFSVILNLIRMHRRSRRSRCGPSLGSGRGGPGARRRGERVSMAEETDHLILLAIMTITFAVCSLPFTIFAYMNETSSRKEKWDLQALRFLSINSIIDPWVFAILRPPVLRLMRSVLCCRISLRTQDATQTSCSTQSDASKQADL
measurement-name: Ki (nM)
Enter your answer as a number in nM; do not include the unit.

Recorded Ki for Cc1ccc(C(=O)O)c(C)c1NC(=O)c1cc(-c2cccc(Cl)c2)cc2ccccc12 , please? 2800

----------
Sequence of the target: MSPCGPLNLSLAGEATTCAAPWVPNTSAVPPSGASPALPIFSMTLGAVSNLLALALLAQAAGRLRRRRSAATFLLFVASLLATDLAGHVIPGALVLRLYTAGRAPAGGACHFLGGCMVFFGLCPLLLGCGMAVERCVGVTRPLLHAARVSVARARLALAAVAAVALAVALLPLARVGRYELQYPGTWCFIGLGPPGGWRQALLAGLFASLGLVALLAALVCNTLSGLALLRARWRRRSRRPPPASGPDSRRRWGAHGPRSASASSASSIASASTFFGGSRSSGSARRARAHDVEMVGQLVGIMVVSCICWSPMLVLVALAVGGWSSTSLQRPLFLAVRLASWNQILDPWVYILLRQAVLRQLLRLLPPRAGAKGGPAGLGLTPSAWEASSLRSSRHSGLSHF
pIC50: −log10 of the molar value.
measurement-name: pIC50

What value of pIC50 has been reported for the following compound? Cc1ccc(C(=O)O)c(C)c1NC(=O)c1cc(-c2cccc(Cl)c2)cc2ccccc12 < 4.60

----------
assay: Drug metabolism in rat hepatic microsomes; type: ADME, Microsome; conditions: liver microsomes, read-out: Drug metabolism
measurement-name: metabolised (%)
Form entry: value (%) — number only.

INSERT INTO assay_data (compound, measurement_name, result_number) VALUES
  ('Cc1cccc(C)c1NC(=O)c1cc(-c2ccccc2)nc2ccccc12', 'metabolised', 64);

Recorded metabolised of CCc1nc2c(C)nc(C)cc2n1-c1ccc(CCNC(=O)NS(=O)(=O)c2ccc(C)cc2)cc1 [GRAPIPRANT] , please. 5

----------
target: UniProtKB P35408; experiment: Antagonist activity at human EP4 receptor in HEK293 cells assessed as inhibition of PGE2-induced cAMP accumulation; format: functional, cell-based
measurement-name: pIC50
Please note pIC50 is a logarithmic value: minus log10 of concentration in mol/L. Answer with that number alone.

These recorded examples may help you get a feel for the data.
INSERT INTO results (structure_smiles, measured_on, result_number) VALUES
  ('Cc1cc(C(=O)O)cc(C)c1NC(=O)c1cc(-c2cccc(CO)c2)cc2ccccc12', 'UniProtKB P35408', 8.95),
  ('Cc1ccc(C(=O)O)c(C)c1NC(=O)c1cc(-c2cccc(Cl)c2)cc2ccccc12', 'UniProtKB P35408', 8.44),
  ('Cc1ccc(C(=O)O)c(C)c1NC(=O)c1cc(-c2cccc(CO)c2)cc2ccccc12', 'UniProtKB P35408', 8.62);

Now for a further compound.
Lab note: need pIC50 with UniProtKB P35408 for entry Cc1ccc(C(=O)O)c(C)c1NC(=O)c1cc(-c2cccc(CO)c2)nc2ccccc12 , please look it up. 8.28

----------
molecular target: Prostaglandin E2 receptor EP4 subtype (Homo sapiens, UniProt P35408); test: Antagonist activity at human EP4 receptor
Sequence (P35408 whole entry): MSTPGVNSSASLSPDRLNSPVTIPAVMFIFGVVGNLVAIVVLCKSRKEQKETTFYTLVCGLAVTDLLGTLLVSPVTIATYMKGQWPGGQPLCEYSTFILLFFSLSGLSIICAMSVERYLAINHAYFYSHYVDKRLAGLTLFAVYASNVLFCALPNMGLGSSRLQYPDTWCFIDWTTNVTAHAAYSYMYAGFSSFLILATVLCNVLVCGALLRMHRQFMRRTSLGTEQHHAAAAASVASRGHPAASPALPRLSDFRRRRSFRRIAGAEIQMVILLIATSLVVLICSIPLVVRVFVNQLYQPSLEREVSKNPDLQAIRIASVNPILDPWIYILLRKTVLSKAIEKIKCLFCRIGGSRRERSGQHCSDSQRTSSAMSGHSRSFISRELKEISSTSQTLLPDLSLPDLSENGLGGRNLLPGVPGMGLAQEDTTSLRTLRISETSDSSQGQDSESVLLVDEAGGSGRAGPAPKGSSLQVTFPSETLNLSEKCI
measurement-name: pKi
Units for pKi: none; it is -log10 of a concentration expressed in mol/L.

INSERT INTO measurements (structure_smiles, result_number) VALUES
  ('Cc1ccc(C(=O)O)c(C)c1NC(=O)c1cc(-c2ccccc2)cc2ccccc12', 8.17);

Write down the reported pKi of Cc1cc(C(=O)O)cc(C)c1NC(=O)c1cc(-c2cccc(CO)c2)cc2ccccc12 , test system: Prostaglandin E2 receptor EP4 subtype (Homo sapiens, UniProt P35408). 8.45

----------
Measured bioavailability, listed per entry.
assay: Oral bioavailability in rat at 5 mg/kg; type: ADME, organism-based; details: in vivo

Recorded results for 2 compounds are shown here.
INSERT INTO assay_data (structure_smiles, result) VALUES
  ('Cc1cc(C(=O)O)cc(C)c1NC(=O)c1cc(-c2cccc(CO)c2)nc2ccccc12', '3%'),
  ('Cc1ccc(C(=O)O)c(C)c1NC(=O)c1cc(-c2cccc(Cl)c2)cc2ccccc12', '100%');

Consider the compound Cc1ccc(C(=O)O)c(C)c1NC(=O)c1cc(-c2cccc(CO)c2)cc2ccccc12 and give its measured bioavailability. 6%

----------
molecular target: Cytochrome P450 2C9 (Homo sapiens, UniProt P11712)
Sequence (P11712 whole entry): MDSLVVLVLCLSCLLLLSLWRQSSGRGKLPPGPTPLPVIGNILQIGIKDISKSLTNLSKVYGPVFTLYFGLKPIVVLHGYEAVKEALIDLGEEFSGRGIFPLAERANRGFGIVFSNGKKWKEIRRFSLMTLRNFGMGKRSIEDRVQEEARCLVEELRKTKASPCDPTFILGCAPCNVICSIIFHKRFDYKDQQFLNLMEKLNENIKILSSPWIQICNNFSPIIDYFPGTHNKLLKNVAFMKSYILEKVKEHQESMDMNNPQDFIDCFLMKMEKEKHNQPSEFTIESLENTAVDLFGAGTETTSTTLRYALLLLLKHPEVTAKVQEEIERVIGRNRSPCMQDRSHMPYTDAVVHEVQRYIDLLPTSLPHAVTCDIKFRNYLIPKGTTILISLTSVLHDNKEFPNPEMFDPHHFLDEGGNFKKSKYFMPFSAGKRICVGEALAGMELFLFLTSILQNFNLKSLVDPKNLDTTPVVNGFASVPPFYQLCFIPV
pIC50: −log10 of the molar value.
measurement-name: pIC50

Which measured pIC50 belongs to Cc1ccc(C(=O)O)c(C)c1NC(=O)c1cc(-c2cccc(Cl)c2)cc2ccccc12 , tested on Cytochrome P450 2C9 (Homo sapiens, UniProt P11712)? < 5.00

----------
molecular target: Prostaglandin E2 receptor EP4 subtype (Homo sapiens, UniProt P35408); assay: Antagonist activity at EP4 receptor in human whole blood assessed as reversal of inhibition of PGE2 mediated LPS-induced TNF alpha production pretreated for 30 mins using 3,3',5,5' tetramethylbiphenyl-4,4'-diamine substrate measured after 20 to 24 hrs by immunoassay; type: tissue-based
The following compounds are listed with their measured log10 IC50 values.
Recorded IC50 (log10, nM)

Some solved cases for reference:
INSERT INTO measurements (structure_smiles, result_number) VALUES
  ('Cc1ccc(C(=O)O)c(C)c1NC(=O)c1cc(-c2ccccc2)cc2ccccc12', 2.76),
  ('CCc1nc2c(C)nc(C)cc2n1-c1ccc(CCNC(=O)NS(=O)(=O)c2ccc(C)cc2)cc1', 3.18),
  ('Cc1cc(C(=O)O)cc(C)c1NC(=O)c1cc(-c2ccccc2)cc2ccccc12', 2.79),
  ('Cc1cc(C(=O)O)cc(C)c1NC(=O)c1cc(-c2cccc(CO)c2)nc2ccccc12', 2.70),
  ('Cc1cc(C(=O)O)cc(C)c1NC(=O)c1cc(-c2ccccc2)nc2ccccc12', 3.30);

Please look at the following compound next.
Need log10 IC50 of Cc1cc(C(=O)O)cc(C)c1NC(=O)c1cc(-c2cccc(CO)c2)cc2ccccc12 , thanks. 2.13

----------
Measured IC50 accompanies every entry in the list below.
biological target: Prostaglandin E2 receptor EP4 subtype (Homo sapiens); assay: Antagonist activity at EP4 receptor in human whole blood assessed as reversal of inhibition of PGE2 mediated LPS-induced TNF alpha production pretreated for 30 mins using 3,3',5,5' tetramethylbiphenyl-4,4'-diamine substrate measured after 20 to 24 hrs by immunoassay; type: tissue-based
The reply should be a number in nM, with the unit left off.

INSERT INTO assay_data (structure_smiles, measured_on, result_number) VALUES
  ('Cc1ccc(C(=O)O)c(C)c1NC(=O)c1cc(-c2cccc(Cl)c2)cc2ccccc12', 'Prostaglandin E2 receptor EP4 subtype (Homo sapiens)', 243),
  ('Cc1ccc(C(=O)O)c(C)c1NC(=O)c1cc(-c2cccc(CO)c2)cc2ccccc12', 'Prostaglandin E2 receptor EP4 subtype (Homo sapiens)', 6.2);

With those in mind, consider the next compound.
IC50 for Cc1ccc(C(=O)O)c(C)c1NC(=O)c1cc(-c2cccc(CO)c2)nc2ccccc12 ? 312
